Each recorded value in this set is attributed to PubChem BioAssay.

- Test: growth suppression of beta-catenin knockout HCT116, pilot screen, human colon tumor cells (AID 823);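 note: 0% = wells killed by 20 µM Hyamine and 100% = untreated DMSO cell wells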
- Experimental Context: CellTiter-Glo, 60 h, at 10 µM
Inconclusive results are not listed. Calls of active or inactive are those of the source.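 Rule for the calls: active = cell viability at or below a set limit in both duplicate runs, the limit being the all-compound median minus 4 SD (cut at about 23% in these data, passing the limit was not always enough); inconclusive = no clear call, values can overlap the other calls; inactive = the rest.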
Possible outcomes: active, inactive

Molecule: Cc1ccc(C2CC(c3ccco3)n3nc(N)nc3N2)cc1 (stereo unspecified)
Group: inactive
--
Molecule: O=C(CN1C(=O)C2C3C=CC(C3)C2C1=O)Nc1ccc2nccnc2c1 (stereo unspecified)
Group: inactive
--
Molecule: N#Cc1ccc(N2CCN(C(=O)c3cccc(F)c3)CC2)c(F)c1
Group: inactive
--
Molecule: O=C1CC(c2nc3ccccc3[nH]2)CN1c1ccccc1F (stereo unspecified)
Group: inactive
--
Molecule: Cc1ccccc1-n1nc(-c2ccc(N)cc2)cc1N
Group: inactive
--
Molecule: Cc1cccc(N(CC(=O)Nc2c(C)n(C)n(-c3ccccc3)c2=O)S(C)(=O)=O)c1C
Group: inactive
--
Molecule: COc1cc(C(=O)NCC(c2ccco2)N2CCCC2)ccc1OCc1c(C)noc1C (stereo unspecified)
Group: inactive
--
Molecule: c1ccc(Nc2nc(N3CCOCC3)nc(N3CCOCC3)n2)cc1
Group: inactive
--
Molecule: O=C(Nc1ccc(Cl)cc1)C1CC2CCCC(C1)C2=O (stereo unspecified)
Group: inactive
--
Molecule: CC(=O)c1ccc(N2CCN(C(=O)c3cc4c(=O)n(C)c5ccccc5c4n3C)CC2)cc1
Group: inactive
--
Molecule: Cc1oc2cc(O)ccc2c(=O)c1N1C(=O)c2ccccc2C1=O
Group: inactive
--
Molecule: CS(=O)(=O)c1nc(-c2cccs2)cc(C(F)(F)F)n1
Group: inactive
--
Molecule: O=C(c1ccco1)N1CCN(c2nc3ccsc3c(=O)s2)CC1
Group: inactive
--
Molecule: Cc1ccc(N(C(=O)CC2NC(=O)NC2=O)C2(C(=O)NC3CCCC3)CCCCC2)cc1 (stereo unspecified)
Group: inactive
--
Molecule: COc1ccc(S(=O)(=O)Nc2cc(Cl)ccc2OC)cc1
Group: active
--
Molecule: CCCC(=O)Nc1cc(=O)n(C)c(=O)n1C
Group: inactive
--
Molecule: Cc1cc(-c2c(C)n([O-])c(C)c(C)[n+]2=O)ccc1F
Group: inactive
--
Molecule: COc1ccc(N2CSC3=C(C#N)C(c4cccc(OC)c4OC)CC(=O)N3C2)cc1 (stereo unspecified)
Group: inactive
--
Molecule: Cn1nc(CC(=O)NC2CCCCCC2)c2ccccc2c1=O
Group: inactive
--
Molecule: CC(NS(C)(=O)=O)C(c1cccs1)N1CCN(Cc2ccccc2)CC1 (stereo unspecified)
Group: inactive
--
Molecule: O=C(NCCO)c1ccc2[nH]c3c(c2c1)CCCC3
Group: inactive
--
Molecule: CCOc1ccccc1C1C(C(N)=O)=C(C)Nc2nc(CCCO)nn21 (stereo unspecified)
Group: inactive
--
Molecule: COc1cccc(Nc2cc(C)nc3nc(C)nn23)c1
Group: inactive
--
Molecule: COc1ccc2c(c1)[nH]c1c(N3CCN(Cc4ccc5c(c4)OCO5)CC3)ncnc12
Group: active
--
Molecule: COc1ccc(C2C3=C(CC(C)(C)CC3=O)Nc3n[nH]c(C)c32)cc1 (stereo unspecified)
Group: inactive
--
Molecule: CCN(CC)S(=O)(=O)c1ccc(C2CNC(=O)C2)cc1 (stereo unspecified)
Group: inactive
--
Molecule: CSC1=NCCN1C(=O)C(C)Oc1ccccc1 (stereo unspecified)
Group: inactive
--
Molecule: CCOC(=O)C1CCCN(C(=O)C2CCCN(S(=O)(=O)c3ccc4c(c3)oc(=O)n4C)C2)C1 (stereo unspecified)
Group: inactive
--
Molecule: Clc1nc2sccn2c1/C=N/n1cnc2ccccc21
Group: inactive
--
Molecule: C(=C\c1ccccc1)/CSc1nnc(-c2cccnc2)o1
Group: inactive
--
Molecule: Cc1cccc(NC(=O)C2C(C(=O)O)C3C=CC2C32CC2)c1C (stereo unspecified)
Group: inactive
--
Molecule: O=C(NCCc1cn2ccsc2n1)c1cccs1
Group: inactive
--
Molecule: CC(=O)CCS(=O)(=O)c1ccc(C)c(C)c1
Group: inactive
--
Molecule: Cc1cc(C)nc(SCCn2c(N3CCC(C)CC3)nc3c2c(=O)n(C)c(=O)n3C)n1
Group: inactive
--
Molecule: CCOC(=O)c1cn(-c2ccccc2)nc1-c1cccnc1
Group: inactive
--
Molecule: N=c1n(CCOc2ccccc2)c2ccccc2n1CCN1CCOCC1
Group: inactive
--
Molecule: CCC(C)NC(=O)C1CN(S(=O)(=O)c2ccccc2)CCN1S(=O)(=O)c1ccccc1 (stereo unspecified)
Group: inactive
--
Molecule: CC(C)N(C(=O)COc1ccc(Br)cc1Cl)C(C)C
Group: inactive
--
Molecule: COc1ccc(NC(=O)N2CCC(c3ccccc3)C2)c(OC)c1 (stereo unspecified)
Group: inactive
--
Molecule: COc1cccc(NC(=O)CSc2ncnc3c2oc2ccccc23)c1
Group: inactive
--
Molecule: CCOc1ccc2nc(NC(=O)Nc3cccs3)sc2c1
Group: inactive
--
Molecule: COc1ccccc1C(=O)n1nc(C)cc1C
Group: inactive
--
Molecule: COc1cccc(-c2nc(CS(=O)CC(=O)NC3CC3)c(C)o2)c1 (stereo unspecified)
Group: inactive
--
Molecule: COc1ccc(CCNc2oc(-c3ccc(C)cc3)nc2C#N)cc1OC
Group: inactive
--
Molecule: CCCCCn1c(CCNC(=O)c2cccs2)nc2ccccc21
Group: inactive
--
Molecule: Cc1cc(C)cc(OCC(=O)Nc2cccc(-c3nc4ncccc4o3)c2)c1
Group: inactive

====

- Test: growth inhibitors of H69AR lung tumor, primary screen, human, duplicate replicates (AID 580);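 note: 100% = mean luminescence of untreated wells and 0% = no signal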
- Experimental Context: H69AR lung tumor cells viability, ATP luminescence, 72 h; at 10 µM; active compounds read low
Measured Metric: viability (%)

Compound: CC(=O)NC1(c2nnnn2CCOC(=O)Nc2ccc(Cl)cc2)CCCCC1
Endpoint Result: 98.5
//
Compound: CC(C)CNC(=O)C1CC(=O)OC12CCCCC2 (stereo unspecified)
Endpoint Result: 113
//
Compound: O=C(c1ccccc1)c1ccncc1
Endpoint Result: 92.4
//
Compound: CCCCOCCCNC(=O)c1cccs1
Endpoint Result: 104
//
Compound: O=C1CN(C(=O)CN2CCCC2)C(c2ccccc2)c2cc(Br)ccc2N1 (stereo unspecified)
Endpoint Result: 102
//
Compound: CCC(=NC(C)c1ccccc1)c1c(O)n(C)c(=O)n(C)c1=O (stereo unspecified)
Endpoint Result: 90.7

====

Item-by-item account of growth inhibition
- Test: OD615 S. cerevisiae growth inhibition, permissive medium, pilot counter-assay, permissive growth control for S. cerevisiae lifespan shortening project (AID 705)
- Experimental Context: OD615, 24 h, at 10 µM, active compounds read high
Measured Metric: growth inhibition (%)

Compound: CC(=O)NC(=S)c1c(N)n(Cc2ccccc2)c(=O)n(C)c1=O
Endpoint Result: 19.2

Compound: CC1CCC(NC(=O)Cn2c(=O)[nH]c3ccsc3c2=O)CC1 (stereo unspecified)
Endpoint Result: -13.7

Compound: O=C(OC1CCCCC1)c1ccc(NC(=O)c2ccco2)cc1
Endpoint Result: -1.26

Compound: COc1cccc2c(=O)c(C/C=C(/C)Cl)c(C)[nH]c12
Endpoint Result: -2.8

Compound: CNC(=O)c1c(NC(=O)c2nc3ccccc3s2)sc2c1CCC2
Endpoint Result: 1.6

Compound: CCCOc1ccc(C2c3c(oc4cc(C)c(C)cc4c3=O)C(=O)N2CCCN(C)C)cc1 (stereo unspecified)
Endpoint Result: -3.96

====

- Test: RAM signaling pathway blockade in yeast – S. cerevisiae, Pdr1DBD-CYC8 efflux-inhibited sensitized strain, primary screen (AID 1298);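 note: 0% = DMSO untreated cells without growth and 100% = 10 µM 1-NA-PP1 full growth; higher means more yeast growth rescued from 5-FOA killing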
- Experimental Context: S. cerevisiae cbk1-as DSE1-URA3 strain, 5-FOA growth OD615, 2 d; at 50 µM
Activity calls are given as the source filed them.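 How the source made its calls: active means RAM network inhibition above 8.4% in each of two replicates, 3 SD over the compound average; inconclusive means above 8.4% inhibition in only one replicate; inactive means 8.4% inhibition or less in each replicate.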
Possible outcomes: active, inactive

Molecule: CCCNC(=O)NCCc1c(C)[nH]c2ccccc12
Group: inactive
//
Molecule: COCC(=O)NC(C)c1nc2ccccc2[nH]1 (configuration not stated)
Group: inactive
//
Molecule: COc1ccc(Cl)cc1N1C(=O)C2CCCN2C1c1ccc(F)c(F)c1 (configuration not stated)
Group: inactive
//
Molecule: Cc1cc(NC(=O)COC(=O)C2CCN(S(=O)(=O)c3ccc(Cl)cc3)CC2)no1
Group: inactive
//
Molecule: CCOC(=O)C1Cn2c(nc3c(c2=O)C(C)(C)Cc2ccccc2-3)S1 (configuration not stated)
Group: inactive
//
Molecule: COC(=O)CSCc1nc2ccccc2[nH]c1=O
Group: inactive
//
Molecule: O=C(O)[C@H](Cc1ccccc1)N1Cc2ccccc2C1=O
Group: inactive
//
Molecule: c1cn(CCCNc2ncnc3nc[nH]c23)cn1
Group: inactive
//
Molecule: Cc1ccc(OCC(O)CN2CCN(c3ccccc3)CC2)cc1 (configuration not stated)
Group: inactive
//
Molecule: CCN(CCCNS(=O)(=O)c1ccc2c(c1)CCN2C(C)=O)c1cccc(C)c1
Group: inactive
//
Molecule: CCCOc1ccc(C2c3c(oc4cc(C)c(C)cc4c3=O)C(=O)N2CCCN(C)C)cc1 (configuration not stated)
Group: inactive
//
Molecule: Fc1ccc(C2CC(c3ccccc3)Nc3ncnn32)cc1 (configuration not stated)
Group: inactive
//
Molecule: CC1=C(C(=O)Nc2ccccc2C)C(c2ccccc2)NC(=O)N1 (configuration not stated)
Group: inactive
//
Molecule: COc1ccc(S(=O)(=O)Cc2ccc(C(=O)N3CCN(c4ccc(Cl)cc4)CC3)o2)cc1
Group: inactive
//
Molecule: Cc1nc2ccccc2c(=O)n1CCCO
Group: inactive
//
Molecule: CCCC(c1c(C)n(C)n(-c2ccccc2)c1=O)c1c(C)n(C)n(-c2ccccc2)c1=O
Group: inactive
//
Molecule: CCOC(=O)CN1CC23C=CC(O2)C(C(=O)Nc2ccc4c(c2)OCO4)C3C1=O (configuration not stated)
Group: inactive
//
Molecule: OCC1(c2cc(C(F)(F)F)n[nH]2)CCCCC1
Group: inactive
//
Molecule: Cn1c(N)c(C(=O)COC(=O)Cc2ccsc2)c(=O)n(C)c1=O
Group: inactive
//
Molecule: O=C(NCc1ccco1)C1CCN(C(=O)Cc2ccccc2)CC1
Group: inactive
//
Molecule: FC(F)(F)C12CC(c3ccccc3)=NCCN1CCN2 (configuration not stated)
Group: inactive
//
Molecule: O=C(O)c1ccc(NS(=O)(=O)c2cccc3cccnc23)cc1
Group: inactive
//
Molecule: CC(=O)C1=C(C)NC(SCC(N)=O)=C(C#N)C1c1cccnc1 (configuration not stated)
Group: inactive
//
Molecule: CCN1CCN(c2cc(C)c3cc(NC(=O)c4ccc5c(c4)OCO5)ccc3n2)CC1
Group: inactive
//
Molecule: CCOc1ccccc1C1N(c2ccc(OC)cc2)C(=O)C2CCCN21 (configuration not stated)
Group: inactive
//
Molecule: N#Cc1ccccc1N=C1CCCN1Cc1ccccc1
Group: inactive
//
Molecule: CCOC(=O)c1c(CN2CCCCC2)n(C)c2ccc(OC)c(S(=O)(=O)c3ccccc3)c12
Group: inactive
//
Molecule: Cc1ccccc1-n1nc(-c2ccc(N)cc2)cc1N
Group: inactive
//
Molecule: Cc1cc(Nc2ccccc2F)n2nc(C)nc2n1
Group: inactive
//
Molecule: COC(=O)c1ccc(N2C(=O)CC(Sc3n[nH]c(C)n3)C2=O)cc1 (configuration not stated)
Group: inactive
//
Molecule: O=C1C2CCCN2C(c2ccccc2F)N1c1cccc(Cl)c1 (configuration not stated)
Group: inactive
//
Molecule: Cn1c(Cn2c(=O)sc3ccccc32)nnc1SCc1ccc(F)cc1
Group: active
//
Molecule: CCN(CC)S(=O)(=O)c1ccc2c3c(cccc13)C(=O)N2
Group: inactive
//
Molecule: Cc1ccc2c(c1)c1c(n2CC(O)Cn2c(C)nc3ccccc32)C(=O)CCC1 (configuration not stated)
Group: inactive
//
Molecule: CCCc1cc(C(=O)Nc2cccnc2)no1
Group: inactive
//
Molecule: COc1cc(C2CC(=O)C=C(O)C2)cc(OC)c1OC (configuration not stated)
Group: inactive
//
Molecule: O/N=C1\CCCc2oc3c(c21)CCCC3
Group: inactive
//
Molecule: CC(=O)Nc1c(C(=O)c2ccc(F)cc2)oc2ccccc12
Group: inactive
//
Molecule: CCO/C=N/c1c(C#N)c(CC#N)nn1-c1ccccc1
Group: inactive
//
Molecule: O=C(Cn1cc2c(n1)CCCCC2)NCc1cccs1
Group: inactive
//
Molecule: COCCN(CCOC)Cc1c(C)[nH]c2c(C)c(C)ccc2c1=O
Group: inactive
//
Molecule: COc1ccc(N(CC(=O)NCc2ccco2)S(C)(=O)=O)cc1Cl
Group: inactive
//
Molecule: O=C(CSc1nc2ccccc2o1)NCc1ccco1
Group: inactive
//
Molecule: C=CCSc1nnc2c(n1)OC(c1cccnc1)Nc1ccccc1-2 (configuration not stated)
Group: inactive
//
Molecule: CC(=O)C1C(c2ccccc2Cl)NC(=O)NC1(O)C(F)(F)F (configuration not stated)
Group: inactive
//
Molecule: COc1ccc(-n2c(Cc3cc(=O)[nH]c(=O)[nH]3)nnc2SCC(=O)N2CCC(C)CC2)cc1
Group: inactive
//
Molecule: O=C(c1ccc(NC2=NC3CS(=O)(=O)CC3S2)cc1)N1CCc2ccccc2C1 (configuration not stated)
Group: inactive
